meta.source: patent US20110034472A1

- Test system: PC3 prostate cancer cells
- experiment-notes: MTT cytotoxicity assay, PC3
- Type: cell-based
- condition-details: Homo sapiens, PC-3; PC3 cells; read-out: IC50 value
result-type: pIC50
Reminder that pIC50 means the negative base-10 logarithm of the concentration expressed in mol/L.

Req: Return reported pIC50; argument: O=C(NNC(O)c1cc2ccccc2cc1O)c1cc2ccccc2cc1O (centres unmarked)
Resp: 5.70

Req: Entry O=C(NNC(=O)c1ccccc1O)C1=CC2C=CC=CC2C=C1O (centres unmarked) has what pIC50?
Resp: 5.49

* * *

- Tested on: HEY ovarian cancer cells
- experiment-notes: MTT cytotoxicity assay, HEY
- Format: cell-based, human
- condition-details: Homo sapiens; HEY ovarian cancer cells; read-out: 50% Cytotoxic concentration (IC50)
Record form. Attribute: IC50. Fill in for each entry.
Entry rule: numbers only, all in µM.

Req: Record "C=C(C)CNC(=S)NNC(=O)CCn1c2ccccc2c2ccccc21" : what is its IC50 with HEY ovarian cancer cells?
Resp: 4

Req: What reported IC50 corresponds to "O=C(CSc1nc2ccccc2cc1Cc1ccccc1)NNC(=O)c1ccco1" on HEY ovarian cancer cells?
Resp: 8

Req: Query IC50 on HEY ovarian cancer cells for "O=C(CSc1nc(C2CC2)nc2sc3c(c12)CCCC3)NNC(=O)c1ccco1"
Resp: 4

Req: What reported IC50 corresponds to CC1=C(C)C2c3nnc(SCC(=O)NNC(=O)c4ccco4)n3C(C(C)C)=NC2S1 (stereo not shown) on HEY ovarian cancer cells?
Resp: 6

Req: For HEY ovarian cancer cells, provide IC50 of "CCCn1c(=O)c(C(=O)NNC(=O)c2ccccc2)c(O)c2ccccc21" please.
Resp: 2

Req: Write down the reported IC50 of O=C(CSc1nc2ccccc2c(=O)n1CC1CCCO1)NNC(=O)c1ccccc1O (stereo not shown) , test system: HEY ovarian cancer cells.
Resp: 2

Req: Missing value: IC50, HEY ovarian cancer cells, entry "CCn1c(=O)c(C(=O)NNC(=O)c2ccc(C)cc2)c(O)c2ccccc21" . Fill in?
Resp: 6

Req: Param readout = IC50; param system = HEY ovarian cancer cells; param query = "O=C(O)CCCC(=O)NNC(=O)c1ccccc1Cl" ; response: value
Resp: 18

Req: # get_value(readout= IC50, system= HEY ovarian cancer cells) for "COc1cccc(C(=O)NNC(=O)c2ccc3ccccc3c2O)c1"
Resp: 7

Req: I'm curious: which IC50 was measured for CC1=C(C)C2c3nnc(SCC(=O)NNC(=O)c4ccco4)n3C=NC2S1 (stereo not shown) tested on HEY ovarian cancer cells?
Resp: 4

Req: Query IC50 on HEY ovarian cancer cells for "COc1ccccc1C(=O)NNC(=O)c1ccccc1O"
Resp: 10

Req: Observed IC50 on HEY ovarian cancer cells for "O=C(NNC(=O)c1cccc2ccccc12)c1cccs1" , please.
Resp: 11

Req: State its IC50 on HEY ovarian cancer cells: "O=C(NNC(=O)c1c(O)c2ccccc2[nH]c1=O)c1ccccc1[N+](=O)[O-]"
Resp: 2

Req: Find the measured IC50: item "O=C(CSc1nnc(-c2ccccc2)n1Cc1ccccc1)NNC(=O)c1ccccc1O" , target or system HEY ovarian cancer cells.
Resp: 5

Req: Find IC50 (HEY ovarian cancer cells) for the entry "Cc1cc(C)cc(OCC(=O)NNC(=O)c2cc3ccccc3oc2=O)c1"
Resp: 12

Req: API: value(readout=IC50, system=HEY ovarian cancer cells) for record "O=C(NNC(=O)c1cccs1)c1ccc(O)c(O)c1"
Resp: 2

Req: API: value(readout=IC50, system=HEY ovarian cancer cells) for record "O=C(/C=C/NNC(=O)c1ccccc1O)c1ccccc1"
Resp: 2

Req: Give HEY ovarian cancer cells IC50 for "O=C(NNC1=NS(=O)(=O)c2ccccc21)c1ccncc1"
Resp: 5

Req: # returns recorded IC50 (system: HEY ovarian cancer cells) for "Cc1ccc(-n2c(SCC(=O)NNC(=O)c3ccccc3O)nnc2-c2ccccc2)cc1"
Resp: 5

Req: Can you look up IC50 on HEY ovarian cancer cells for "O=C(COc1ccc2ccccc2c1)NNC(=O)c1ccccc1O" ?
Resp: 6

Req: Give IC50 (HEY ovarian cancer cells) of the following molecule: "COc1ccc2nc(C)cc(SCC(=O)NNC(=O)COc3cccc4ccccc34)c2c1"
Resp: 5

Req: API: value(readout=IC50, system=HEY ovarian cancer cells) for record "CCCCCCCCCC(=O)NNC(=O)c1c(O)c2ccccc2[nH]c1=O"
Resp: 7

Req: Form field - read-out: IC50; system: HEY ovarian cancer cells; submitted item: "O=C(NNC(=O)c1cccs1)c1ccccn1"
Resp: 16

Req: Form entry - test system: HEY ovarian cancer cells; read-out: IC50; molecule: "CCn1c(=O)c(C(=O)NNC(=O)c2ccc([N+](=O)[O-])cc2)c(O)c2ccccc21"
Resp: 5

Req: Identify the measured IC50 of "CCn1c(=O)c(C(=O)NNC(=O)c2cccc(C)c2)c(O)c2ccccc21" for HEY ovarian cancer cells.
Resp: 6

Req: Please state recorded IC50 (tested on HEY ovarian cancer cells) of "O=C(NNC1=CS(=O)(=O)c2ccccc21)c1ccccc1"
Resp: 5

Req: Hi! What's the reported IC50 for "CCCCCCCCC(=O)NNC(=O)c1c(O)c2ccccc2n(C)c1=O" on HEY ovarian cancer cells?
Resp: 5

Req: GET /values?readout=IC50&system=HEY ovarian cancer cells&item= "O=C(NNC(=O)c1c(O)c2ccccc2[nH]c1=O)c1ccccc1F"
Resp: 6

Req: API: value(readout= IC50, system= HEY ovarian cancer cells, query= "CCc1cc2ccccc2nc1SCC(=O)NNC(=O)c1ccccc1" )
Resp: 10

Req: Report IC50 for "CCn1c(=O)c(C(=O)NNC(=O)Cc2ccccc2)c(O)c2ccccc21" tested on HEY ovarian cancer cells.
Resp: 6

Req: # query: IC50 | item "CC1(C)Cc2c(sc3nc(NNC(=O)c4ccccc4)[nH]c(=O)c23)CO1" | system: HEY ovarian cancer cells
Resp: 8

Req: Param readout= IC50; system= HEY ovarian cancer cells; entry= "CCn1c(NNC=O)nc2c1c(=O)[nH]c(=O)n2C" ; returns value.
Resp: 12

Req: State its IC50 on HEY ovarian cancer cells: "CCn1c(=O)c(C(=O)NNC(=O)c2cccc([N+](=O)[O-])c2)c(O)c2ccccc21"
Resp: 4

Req: HEY ovarian cancer cells / IC50 / "O=C(NNC(=O)c1cccs1)c1ccc2ccccc2c1" : value?
Resp: 11

Req: Quick check: IC50 on HEY ovarian cancer cells, item O=C(CSC1=NNC2C3=C(N=C(C4CC4)N12)S1=C(CCCC1)C3)NNC(=O)C1C=CC=CO1 (stereo not shown) ?
Resp: 15

Req: Param readout = IC50; param system = HEY ovarian cancer cells; param query = "CC1CCN(S(=O)(=O)c2ccc(C(=O)NNC(=O)C3CC3)cc2)CC1" ; response: value
Resp: 8

Req: Query IC50 on HEY ovarian cancer cells for "COc1ccc(C(=O)NNC(=O)CSc2ncnc3sc4c(c23)CCCC4)cc1"
Resp: 5

Req: // fetch HEY ovarian cancer cells IC50 for "O=C(CSc1nnc2c3c4c(sc3ncn12)CCCC4)NNC(=O)c1ccco1"
Resp: 14

Req: Request body: readout IC50, system HEY ovarian cancer cells, query "O=C(NNC(=O)c1cc2ccccc2oc1=O)c1ccc(S(=O)(=O)N2CCOCC2)cc1" . Return the value.
Resp: 3

Req: For the record "O=C(NNC(=O)c1cc2ccccc2oc1=O)c1ccncc1" , what value of IC50 is listed for HEY ovarian cancer cells?
Resp: 7
